src = paper PMC9534960

- targetOfAssay: T1, MDM2, recombinant from E. coli (UniProt Q00987 1-491)
- T1 construct: E3 ligase MDM2; Plasmid bought from GenScript; also called E3 ligase MDM2; pET‐28a (MDM2)
- T1 sequence (Q00987 whole entry): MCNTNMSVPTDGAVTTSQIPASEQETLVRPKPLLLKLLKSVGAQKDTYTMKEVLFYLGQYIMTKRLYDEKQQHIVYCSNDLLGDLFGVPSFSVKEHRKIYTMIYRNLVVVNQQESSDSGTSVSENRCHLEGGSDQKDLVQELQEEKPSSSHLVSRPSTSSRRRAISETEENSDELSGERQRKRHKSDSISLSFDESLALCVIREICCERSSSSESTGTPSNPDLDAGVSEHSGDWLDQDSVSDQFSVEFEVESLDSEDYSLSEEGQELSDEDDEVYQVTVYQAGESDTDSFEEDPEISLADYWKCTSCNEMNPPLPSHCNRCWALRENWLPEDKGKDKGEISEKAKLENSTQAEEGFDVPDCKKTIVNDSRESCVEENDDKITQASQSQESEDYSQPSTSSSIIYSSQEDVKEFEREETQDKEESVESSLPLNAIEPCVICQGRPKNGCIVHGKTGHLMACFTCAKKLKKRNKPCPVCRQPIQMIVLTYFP
- assay: ITC; protein (around 20 µM, 0.2 ml) in the sample cell, peptide (around 200 µM) in the syringe; 25 °C; first injection 0.4 µl, then 19 injections of 2 µl
- measurementSetup: both partners purified
pKd: −log10 of the molar value.

# binder, pKd
records = [
    ("YLCSSNNNRERDKFRRGGSGGTSFEQFWAWLWP (flexible linker; Free peptide in ITC and fluorescence polarisation; also called AR DBD PROTAC; AR DBD PROTAC drug; source: synthetic peptide (solid‐phase peptide synthesis, preparative HPLC)) [AR pep‐PROTAC drug (designed peptide PROTAC)]", 7.91),
]
